src = patent US20090304692A1

# SYSTEM TESTED: PI3K-α (Homo sapiens)
# Sequence (P42336 whole entry, species assumed): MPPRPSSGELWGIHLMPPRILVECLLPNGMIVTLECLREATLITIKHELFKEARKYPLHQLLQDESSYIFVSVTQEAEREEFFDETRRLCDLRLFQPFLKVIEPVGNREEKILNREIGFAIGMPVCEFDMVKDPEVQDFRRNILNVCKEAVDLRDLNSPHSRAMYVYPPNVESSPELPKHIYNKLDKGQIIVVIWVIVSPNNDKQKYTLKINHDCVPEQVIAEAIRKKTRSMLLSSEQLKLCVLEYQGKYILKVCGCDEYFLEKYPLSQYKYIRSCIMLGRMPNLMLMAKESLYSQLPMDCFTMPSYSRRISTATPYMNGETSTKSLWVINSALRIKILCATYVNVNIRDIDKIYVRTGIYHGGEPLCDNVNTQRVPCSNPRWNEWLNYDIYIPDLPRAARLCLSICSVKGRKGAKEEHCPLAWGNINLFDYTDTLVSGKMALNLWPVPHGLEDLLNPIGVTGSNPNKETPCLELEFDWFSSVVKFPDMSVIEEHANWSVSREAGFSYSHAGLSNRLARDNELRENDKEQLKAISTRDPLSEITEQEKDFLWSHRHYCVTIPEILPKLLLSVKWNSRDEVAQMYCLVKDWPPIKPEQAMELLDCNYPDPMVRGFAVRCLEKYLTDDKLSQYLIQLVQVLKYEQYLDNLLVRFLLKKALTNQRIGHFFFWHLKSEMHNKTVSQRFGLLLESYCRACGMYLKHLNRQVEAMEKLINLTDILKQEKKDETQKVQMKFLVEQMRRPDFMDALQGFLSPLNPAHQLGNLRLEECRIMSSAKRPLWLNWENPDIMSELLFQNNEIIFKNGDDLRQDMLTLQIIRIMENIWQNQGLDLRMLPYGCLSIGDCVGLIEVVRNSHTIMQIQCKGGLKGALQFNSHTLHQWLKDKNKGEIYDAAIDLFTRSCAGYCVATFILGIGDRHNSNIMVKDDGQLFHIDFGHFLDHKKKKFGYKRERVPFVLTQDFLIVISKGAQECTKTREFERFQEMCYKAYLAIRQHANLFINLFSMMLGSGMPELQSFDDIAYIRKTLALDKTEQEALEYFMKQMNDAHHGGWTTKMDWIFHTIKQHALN
# Sequence (P27986 whole entry partner, species assumed): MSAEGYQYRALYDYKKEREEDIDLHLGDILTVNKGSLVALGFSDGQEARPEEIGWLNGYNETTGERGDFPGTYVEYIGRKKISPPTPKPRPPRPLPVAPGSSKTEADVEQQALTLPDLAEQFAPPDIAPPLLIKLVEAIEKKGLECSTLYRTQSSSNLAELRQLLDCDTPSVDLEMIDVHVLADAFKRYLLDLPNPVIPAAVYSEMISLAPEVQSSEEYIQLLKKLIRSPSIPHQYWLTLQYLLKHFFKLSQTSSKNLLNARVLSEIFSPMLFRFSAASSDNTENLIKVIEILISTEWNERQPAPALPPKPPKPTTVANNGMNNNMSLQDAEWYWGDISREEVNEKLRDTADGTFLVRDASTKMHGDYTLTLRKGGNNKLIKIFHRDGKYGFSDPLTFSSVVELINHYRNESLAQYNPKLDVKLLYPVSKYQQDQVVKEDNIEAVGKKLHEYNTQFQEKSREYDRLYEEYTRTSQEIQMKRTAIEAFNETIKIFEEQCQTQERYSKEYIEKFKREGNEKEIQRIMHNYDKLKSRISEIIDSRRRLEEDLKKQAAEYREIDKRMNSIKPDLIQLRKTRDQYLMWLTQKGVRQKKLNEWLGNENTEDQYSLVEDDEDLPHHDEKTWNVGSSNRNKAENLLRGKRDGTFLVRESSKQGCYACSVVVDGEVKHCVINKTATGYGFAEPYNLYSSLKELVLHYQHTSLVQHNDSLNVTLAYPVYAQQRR
# PROTOCOL TEXT: PI3K-alpha fluorescence polarization assay
ENDPOINT NAME: IC50

In [3]: df
Out[3]:
                                   compound          system_tested  observed_measurement
0  COCC(COC)Oc1nc(-c2ccc(NC(=O)NC3CC3)cc2)nc(N2CC3CCC(C2)O3)n1 [Example 178]  PI3K-α (Homo sapiens)            > 10000 nM
1  C[C@H]1COCCN1c1nc(-c2ccc(NC(=O)Nc3ccncc3)cc2)nc(N2CCOC[C@@H]2C)n1 [Example 609]  PI3K-α (Homo sapiens)               11.5 nM
2  CN1CCN(c2ccc(NC(=O)Nc3ccc(-c4nc(-c5ccc(NC(=O)NC6CC6)cc5)nc(N5CC6CCC(C5)O6)n4)cc3)cc2)CC1 [Example 146]  PI3K-α (Homo sapiens)            > 10000 nM
3  O=C(Nc1ccc(-c2nc(Nc3ccccc3)nc(N3CC4CCC(C3)O4)n2)cc1)Nc1cccnc1 [Example 150]  PI3K-α (Homo sapiens)                832 nM
4  CN(C)CCNC(=O)c1ccc(NC(=O)Nc2ccc(-c3nc(C4=CCOCC4)nc(N4CCOCC4)n3)cc2)cc1 [Example 284]  PI3K-α (Homo sapiens)              < 1.9 nM
5  Cc1ccc(NC(=O)Nc2ccc(-c3nc(NC4CN(C(=O)OC(C)(C)C)C4)nc(N4CCOCC4)n3)cc2)cc1 [Example 16]  PI3K-α (Homo sapiens)            > 10000 nM
6  COc1ccc(NC(=O)Nc2ccc(-c3nc(N4CCOCC4)nc(N4CCOCC4)n3)cc2)c(OC)c1 [Example 7]  PI3K-α (Homo sapiens)            > 10000 nM

====

# SYSTEM TESTED: PI3K-γ (Homo sapiens, UniProt P48736)
# Sequence (P48736 whole entry, species assumed): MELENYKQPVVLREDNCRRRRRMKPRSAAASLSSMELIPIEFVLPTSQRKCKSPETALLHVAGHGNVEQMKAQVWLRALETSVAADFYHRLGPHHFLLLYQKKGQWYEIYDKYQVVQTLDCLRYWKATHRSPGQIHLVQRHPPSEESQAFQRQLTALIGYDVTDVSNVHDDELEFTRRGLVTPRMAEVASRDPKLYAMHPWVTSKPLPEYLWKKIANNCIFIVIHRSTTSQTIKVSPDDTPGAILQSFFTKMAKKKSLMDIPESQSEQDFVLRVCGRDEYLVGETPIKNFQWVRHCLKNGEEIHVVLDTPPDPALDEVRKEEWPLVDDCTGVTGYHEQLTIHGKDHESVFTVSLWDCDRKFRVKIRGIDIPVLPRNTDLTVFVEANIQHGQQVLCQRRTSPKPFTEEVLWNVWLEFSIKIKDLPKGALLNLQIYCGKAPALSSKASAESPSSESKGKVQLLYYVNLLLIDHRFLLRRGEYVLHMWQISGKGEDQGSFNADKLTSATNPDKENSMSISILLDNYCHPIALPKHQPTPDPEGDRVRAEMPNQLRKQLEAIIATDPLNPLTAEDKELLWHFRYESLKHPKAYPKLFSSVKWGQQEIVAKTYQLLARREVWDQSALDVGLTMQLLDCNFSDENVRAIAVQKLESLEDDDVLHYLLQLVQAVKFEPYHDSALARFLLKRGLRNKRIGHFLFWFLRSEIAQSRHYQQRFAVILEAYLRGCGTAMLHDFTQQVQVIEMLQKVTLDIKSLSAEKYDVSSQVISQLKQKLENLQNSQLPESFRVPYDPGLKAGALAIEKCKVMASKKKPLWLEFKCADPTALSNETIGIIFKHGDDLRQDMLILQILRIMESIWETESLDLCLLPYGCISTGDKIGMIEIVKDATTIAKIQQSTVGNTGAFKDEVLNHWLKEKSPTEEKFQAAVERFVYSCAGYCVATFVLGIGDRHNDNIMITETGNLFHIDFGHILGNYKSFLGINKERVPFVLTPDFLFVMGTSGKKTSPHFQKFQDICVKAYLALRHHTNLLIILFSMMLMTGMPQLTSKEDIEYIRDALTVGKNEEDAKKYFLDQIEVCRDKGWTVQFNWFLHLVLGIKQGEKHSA
# PROTOCOL TEXT: PI3K-gamma fluorescence polarization assay
# CONDITION INFO: read-out: IC50 PI3Kγ
pIC50: −log10 of the molar value.
Decision: pIC50 compared against 7; not below it gives true (1), below it gives false (0).

>>> df
                                smiles_input  label_class
 0  CC(C)c1nc(-c2ccc(NC(=O)Nc3ccc(C(=O)N4CCC(N(C)C)CC4)cc3)cc2)nc(N2CCOCC2)n1     true (1)
 1  CC(C)N1CCN(C(=O)c2ccc(NC(=O)Nc3ccc(-c4nc(N5CCOCC5)nc(N5CCOCC5)n4)cc3)cc2)CC1     true (1)
 2  C[C@H]1COCCN1c1nc(-c2ccc(NC(=O)Nc3ccc(C(=O)NCCCN(C)C)cc3)cc2)nc(N2CCOCC2)n1     true (1)
 3  N#Cc1ccc(NC(=O)Nc2ccc(-c3nc(N4CCOCC4)nc(N4CCC5(CC4)OCCO5)n3)cc2)cc1    false (0)
 4  CC(C)Nc1nc(-c2ccc(NC(=O)Nc3ccncc3)cc2)nc(N2C3CCC2COC3)n1    false (0)
 5  CC(C)Nc1nc(-c2ccc(NC(=O)Nc3ccc(N4CCC(N(C)C)CC4)cc3)cc2)nc(N2C3CCC2COC3)n1    false (0)
 6  CNC1CCN(c2nc(-c3ccc(NC(=O)Nc4ccncc4)cc3)nc(N3CC4CCC(C3)O4)n2)CC1    false (0)
 7  CNCc1ccc(NC(=O)Nc2ccc(-c3nc(N4C5CCC4COC5)nc(N4C5CCC4COC5)n3)cc2)cc1    false (0)
 8  O=C(Nc1ccc(C(=O)N2CCC(N3CCCC3)CC2)cc1)Nc1ccc(-c2nc(N3CCOCC3)nc(N3CCOCC3)n2)cc1     true (1)
 9  CN(C)CCN(C)C(=O)c1ccc(NC(=O)Nc2ccc(-c3nc(N4CCOCC4)nc(N4C5CCCC4COC5)n3)cc2)cc1     true (1)
10  CC(=O)N1CCN(c2nc(-c3ccc(NC(=O)Nc4ccncc4)cc3)nc(N3CC4CCC(C3)O4)n2)CC1    false (0)
